system: NCI-H716 cells; experiment: In vitro GLP-1 secretion-accelerating action: amount of active GLP-1 secreted (ELISA); assay type: cell-based; settings: Table 3, Experiment 3; 10 mM, 1 hour; Student's t-test
observed-property: Significant difference (p < 0.05) vs control group, amount of active GLP-1 secreted

compound | result-value
NCCCCC1NC(=O)CNC1=O (centres unmarked) [compound 96, cyclo-lysyl-glycine] | Yes
CC1NC(=O)C(C(C)O)NC1=O (centres unmarked) [compound 114, Cyclo(Thr-Ala)] | No
C[C@@H]1NC(=O)[C@H](CC(N)=O)NC1=O [compound 124, Cyclo(Asn-Ala)] | No
CC(O)C1NC(=O)C(CCC(=O)O)NC1=O (centres unmarked) [compound 157, Cyclo(Thr-Glu)] | No
NC(=O)CCC1NC(=O)C(CC(=O)O)NC1=O (centres unmarked) [compound 171, Cyclo(Gln-Asp)] | No
NC(N)=NCCC[C@@H]1NC(=O)[C@H](Cc2cnc[nH]2)NC1=O [compound 112, Cyclo(Arg-His)] | No
O=C(O)CC1NC(=O)C(Cc2cnc[nH]2)NC1=O (centres unmarked) [compound 110, cyclo-aspartyl-histidine] | Yes
C[C@H](O)[C@@H]1NC(=O)[C@H](CCCN=C(N)N)NC1=O [compound 168, Cyclo(Arg-Thr)] | No
NC(N)=NCCC[C@@H]1NC(=O)CNC1=O [compound 117, Cyclo(Arg-Gly)] | No
C[C@H](O)[C@@H]1NC(=O)[C@H](CCC(N)=O)NC1=O [compound 167, Cyclo(Gln-Thr)] | No

Q: For the compound shown here, C[C@H](O)[C@@H]1NC(=O)[C@H](CC(N)=O)NC1=O [compound 166, Cyclo(Asn-Thr)] , give the reported Significant difference (p < 0.05) vs control group, amount of active GLP-1 secreted.
Result: No

Q: For the compound shown here, CC(O)C1NC(=O)C(Cc2cnc[nH]2)NC1=O (centres unmarked) [compound 109, cyclo-threonyl-histidine] , give the reported Significant difference (p < 0.05) vs control group, amount of active GLP-1 secreted.
Result: Yes

Q: For the compound shown here, O=C1NC(Cc2cnc[nH]2)C(=O)NC1Cc1cnc[nH]1 (centres unmarked) [compound 107, cyclo-histidyl-histidine] , give the reported Significant difference (p < 0.05) vs control group, amount of active GLP-1 secreted.
Result: Yes

Q: For the compound shown here, NC(N)=NCCC[C@@H]1NC(=O)[C@H](CO)NC1=O [compound 159, cyclo-arginyl-serine] , give the reported Significant difference (p < 0.05) vs control group, amount of active GLP-1 secreted.
Result: Yes

Q: For the compound shown here, O=C1CNC(=O)[C@H](CO)N1 [compound 154, Cyclo(Ser-Gly)] , give the reported Significant difference (p < 0.05) vs control group, amount of active GLP-1 secreted.
Result: No

Q: For the compound shown here, NCCCC[C@@H]1NC(=O)[C@H](CO)NC1=O [compound 98, cyclo-seryl-lysine] , give the reported Significant difference (p < 0.05) vs control group, amount of active GLP-1 secreted.
Result: Yes

Q: For the compound shown here, NCCCC[C@@H]1NC(=O)[C@H](CC(N)=O)NC1=O [compound 101, cyclo-asparaginyl-lysine] , give the reported Significant difference (p < 0.05) vs control group, amount of active GLP-1 secreted.
Result: Yes
